# measured_target: Prostacyclin receptor (Rattus norvegicus) (UniProt P43253)
# Sequence (P43253 whole entry): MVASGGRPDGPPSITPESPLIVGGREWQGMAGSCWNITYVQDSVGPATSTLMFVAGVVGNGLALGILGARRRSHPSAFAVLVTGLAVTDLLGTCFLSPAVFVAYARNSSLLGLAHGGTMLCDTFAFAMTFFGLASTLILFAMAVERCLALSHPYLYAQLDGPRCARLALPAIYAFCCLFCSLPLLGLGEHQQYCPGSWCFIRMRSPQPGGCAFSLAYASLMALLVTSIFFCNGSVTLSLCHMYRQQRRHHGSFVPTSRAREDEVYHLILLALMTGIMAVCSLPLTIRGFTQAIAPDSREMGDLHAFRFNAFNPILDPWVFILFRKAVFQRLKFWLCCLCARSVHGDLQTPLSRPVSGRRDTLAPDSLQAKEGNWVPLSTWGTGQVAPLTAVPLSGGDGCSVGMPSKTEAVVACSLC
# method_description: Intrinsic activity at rat recombinant IP receptor expressed in CHO-K1 cells incubated for 1 hr by HTRF cAMP assay relative to 1 uM iloprost
# Type: functional, cell-based
quantity_kind: Intrinsic activity (%)
Give bare numbers, in %.

Example entries and their recorded answers appear below.
compound: Cc1ccc(-c2nn(CC3CCc4c(cccc4OCC(=O)O)C3)c(=O)cc2-c2ccccc2)cc1 (racemic)
measured_target: Prostacyclin receptor (Rattus norvegicus) (UniProt P43253)
result_units: %
Intrinsic activity: 99

compound: COc1cccc(-c2cc(=O)n(CC3CCc4c(cccc4OCC(=O)O)C3)nc2-c2ccccc2)c1 (racemic)
measured_target: Prostacyclin receptor (Rattus norvegicus) (UniProt P43253)
result_units: %
Intrinsic activity: 96

compound: COc1cccc(-c2cc(=O)n(CC3CCc4c(cccc4OCC(=O)O)C3)nc2-c2ccc(C)cc2)c1 (racemic)
measured_target: Prostacyclin receptor (Rattus norvegicus) (UniProt P43253)
result_units: %
Intrinsic activity: 107

compound: O=C(O)COc1cccc2c1CCC(Cn1nc(-c3ccccc3)c(-c3cccc(F)c3)cc1=O)C2 (racemic)
measured_target: Prostacyclin receptor (Rattus norvegicus) (UniProt P43253)
result_units: %
Intrinsic activity: 97

Below are some compounds; for each one, tell me its Intrinsic activity.
1. O=C(O)COc1cccc2c1CCC(Cn1ncc(-c3ccccc3F)c(-c3ccccc3)c1=O)C2 (racemic)
2. COc1ccc(-c2c(-c3ccccc3)cnn(CC3CCc4c(cccc4OCC(=O)O)C3)c2=O)cc1F (racemic)

Reply:
[99, 100]
